- PROTOCOL_DESCRIPTION: reversal of MRP1-mediated doxorubicin resistance, pilot screen, H69AR cells, doxorubicin co-treatment (AID 601)
- ASSAY_CONTEXT: H69AR cells, CellTiter-Glo, 72 h; compound alone cytotoxicity; at 10 µM
Please use true for viability under 90% and false for everything else, ties included.

Solved cases below.
CCOc1ccc(Oc2nc(Nc3ccc(C)cc3)nc(N(C)C)n2)nn1 :: false
CCCn1nc(NS(=O)(=O)c2ccccc2)c2cc3ccccc3nc21 :: false
Fc1ccccc1-c1nc(-c2ccccc2)no1 :: false

Consider now this further compound.
input: I'd appreciate it if you could check whether CC(=O)c1coc2ccc(OCC(=O)O)cc12 has viability smaller than 90%.
output: false
